Assay: yeast display, Sf9 membrane polyspecificity reagent, FACS + sequencing; frameworks hold sequencing errors
value type: polyreactivity (PSR sort gate)

[
  {
    "construct sequence": "QVQLLESGGGLVQAGGSLRLSCAASGSTFGYYTMGWYRQAPGKERVLVAGISSGGSTNYADSVKGRFTISRDNAKNTVYLQMNSLKQEDTAVYYCDTGSYSYHRGYVTYARFGYWGQGTQVTVSS",
    "value type": "polyreactivity (PSR sort gate)",
    "value reported": "low polyreactivity"
  },
  {
    "construct sequence": "QVQLVESGGGLVQAGGSLRLSCAASGRTFDHNAMGWYRQAPGKERELVAAITWSGGITDYADSVKRPFTISRDNAKNTVYLQMNSLKPEDTAVWGQGTQVTVSS",
    "value type": "polyreactivity (PSR sort gate)",
    "value reported": "low polyreactivity"
  },
  {
    "construct sequence": "QVQLVESGGGLVQAGGSLRLSCAASGFIFYRYAMGWYRQAPGKEREFVAVISKSGGRTYYADSVKGRFTISRDNAKNTVYLQMNSLKPEDTAVYYCNRVYRPSRYDYWGQGTQVTVSS",
    "value type": "polyreactivity (PSR sort gate)",
    "value reported": "high polyreactivity"
  },
  {
    "construct sequence": "QVQLVESGGGLVQAGGSLRLSCAASGSIFAANAMGWYRQAPGKERELVAAISRSGNTYYADSVKGRFTISRDNAKNTVYLQMNSLKPEDTAVYYCAARRDAYGRTYGYWGQGTQVTVSS",
    "value type": "polyreactivity (PSR sort gate)",
    "value reported": "high polyreactivity"
  },
  {
    "construct sequence": "QVQLVESGGCLVQAGGSLRLSCAASGIIFQQYAMGWYRQAPGKARELVAAITYSGDGTYYADSVKGRFTISRDNAKNTVYLQMNSLKPEDTAVYDCAAYPRDPYKEYDYWGQGTQVTVSS",
    "value type": "polyreactivity (PSR sort gate)",
    "value reported": "low polyreactivity"
  }
]

For the sequence `QVQLVESGGGLVQAGGSLRLSCAASGRIFGSNTMGWFRQAPGKERELVAAITGDDSTYADSVKGRFTISRDNAKNTVYLQMNSLKPVDTAVYYCAVVWVWDVWFLVYYWGQGTQVTVSS` , what polyreactivity (PSR sort gate) is on record? low polyreactivity

For the sequence `QVHLQESGGLVQAGGLRLSCAASGSVSYHEAMGWYRQAPAKERELVATISFGANTNYADSVKGRFTISRDNAKHTVYLHMNSLKPEDTAVYYCAAESLFDDYYGYWGQGTQVTVSS` , what polyreactivity (PSR sort gate) is on record? low polyreactivity

For the sequence `QVQLVESGGGLVQAGGSLRLSCAASGYTFNKYAMGWYRQATGKGRELVATIRNGGNTYYADSVKGRFTISRDNAKITVYFQMNSLKPEDTAVYYCAATVRGVGYRYYYWGQGTQVTVSS` , what polyreactivity (PSR sort gate) is on record? high polyreactivity

For the sequence `QVQLVESGGGLVQAGGSLRLSCAASGFIFTKNTMGWYRQAPGKEREWVAAISRGGSTYYADSVKGRFTISRDNAKNTVYLQMNSLKPEDTAVYYCAALYNSTKYGVYTNGPQAEYDYWGQGTQVTVSS` , what polyreactivity (PSR sort gate) is on record? high polyreactivity

For the sequence `QVQLVESGGGLVQAGGSLRLSCAASGFIFEGNAMGWYRQAPGKERELVAAISSSSGRTRYADSVKGRFTISRDNAKNTVYLQMNSLKPEDTAVYYCAARRQSTRPGFYYWGQGTQVTVSS` , what polyreactivity (PSR sort gate) is on record? high polyreactivity

For the sequence `QVQLVESGGGLVQAGGSLRLSCAASGRIFYYNSMGWYRQAPGKERELVAAIRRSGSRTYYADSVKGRFTISRDNAKNTVYFQMNSLIPEDTAVYYCAAKYASFGHHDSWGQGTQVTVSS` , what polyreactivity (PSR sort gate) is on record? high polyreactivity

# credit: the nanobody polyreactivity screen of Harvey et al. (2022)
